- TESTED ON: T1, human CD203c His-tagged recombinant protein (human, UniProt O14638 49-875, limits assumed)
- T1 construct: also called ENPP3; not shown: His tag
- T1 sequence (looked up): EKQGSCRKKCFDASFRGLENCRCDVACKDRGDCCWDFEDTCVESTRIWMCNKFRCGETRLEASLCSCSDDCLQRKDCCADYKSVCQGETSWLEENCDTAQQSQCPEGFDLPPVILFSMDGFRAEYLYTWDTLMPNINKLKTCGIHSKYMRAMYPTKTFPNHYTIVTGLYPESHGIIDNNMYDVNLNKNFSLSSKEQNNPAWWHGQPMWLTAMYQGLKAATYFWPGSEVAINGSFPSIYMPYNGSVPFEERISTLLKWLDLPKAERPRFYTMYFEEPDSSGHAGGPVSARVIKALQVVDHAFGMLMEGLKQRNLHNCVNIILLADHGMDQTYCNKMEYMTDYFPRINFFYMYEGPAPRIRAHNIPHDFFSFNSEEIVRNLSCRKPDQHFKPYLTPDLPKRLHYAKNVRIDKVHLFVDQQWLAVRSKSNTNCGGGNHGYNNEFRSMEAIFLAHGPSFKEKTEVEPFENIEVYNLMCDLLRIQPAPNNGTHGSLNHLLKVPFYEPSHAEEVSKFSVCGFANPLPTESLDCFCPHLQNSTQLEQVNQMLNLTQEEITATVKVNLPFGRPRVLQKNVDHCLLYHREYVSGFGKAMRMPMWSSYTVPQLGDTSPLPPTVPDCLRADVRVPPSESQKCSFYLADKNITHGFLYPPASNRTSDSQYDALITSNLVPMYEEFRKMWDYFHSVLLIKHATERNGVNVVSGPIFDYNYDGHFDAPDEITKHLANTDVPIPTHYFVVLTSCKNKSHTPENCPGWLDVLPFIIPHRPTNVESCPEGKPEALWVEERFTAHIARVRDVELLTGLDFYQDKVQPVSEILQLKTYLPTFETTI
- MEASUREMENT NOTES: direct binding ELISA on human CD203c, absorbance (blank corrected)
MEASURE: binding result

BINDER | EXPERIMENTAL VALUE
18 (antibody, V domains shown, also called variant 18; 18 VH domain) VH: EVQLVQSGAEVKKPGESLKISCKGSGYRFTSYWIGWVRQMPGKGLEWMGIIYPGDSDTRYSPSFQGQVTISADKSISTAYLQWSSLKASDTAMYYCARKDYYYDAMDYWGQGTTVTVSS VL: DIQMTQSPSSLSASVGDRVTITCRASQGIRTNLAWFQQKPGKAPKSLIYAASSLQSGVPSRFSGSGSGTDFTLTISSLQPEDFATYYCQQYNSYPRTFGGGTKVEIK | binds
10 (antibody, V domains shown, also called variant 10; 10 VH domain) VH: EVQLVQSGAEVKKPGESLKISCKGSGYRFTSYWIGWVRQMPGKGLEWMGIIYPGDSDTRYSPSFQGQVTISADKSISTAYLQWSSLKASDTAMYYCARKDYYYGAMDVWGQGTTVTVSS VL: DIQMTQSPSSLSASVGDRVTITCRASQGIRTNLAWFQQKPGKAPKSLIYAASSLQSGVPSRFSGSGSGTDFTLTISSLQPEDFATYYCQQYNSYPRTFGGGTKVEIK | binds
23 (antibody, V domains shown, also called variant 23; 23 VH domain) VH: EVQLVQSGAEVKKPGESLKISCKGSGYRFGSYWIGWVRQMPGKGLEWMGEIYPGDSKTRYSPSFQGQVTISADKSISTAYLQWSSLKASDTAMYYCARKDYYYYAMDVWGQGTTVTVSS VL: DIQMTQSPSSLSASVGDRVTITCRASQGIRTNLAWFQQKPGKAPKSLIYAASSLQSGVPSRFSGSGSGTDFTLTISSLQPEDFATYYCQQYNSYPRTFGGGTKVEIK | binds
